Target: T1, human hippocampal Y5 receptor (human)
T1 chain: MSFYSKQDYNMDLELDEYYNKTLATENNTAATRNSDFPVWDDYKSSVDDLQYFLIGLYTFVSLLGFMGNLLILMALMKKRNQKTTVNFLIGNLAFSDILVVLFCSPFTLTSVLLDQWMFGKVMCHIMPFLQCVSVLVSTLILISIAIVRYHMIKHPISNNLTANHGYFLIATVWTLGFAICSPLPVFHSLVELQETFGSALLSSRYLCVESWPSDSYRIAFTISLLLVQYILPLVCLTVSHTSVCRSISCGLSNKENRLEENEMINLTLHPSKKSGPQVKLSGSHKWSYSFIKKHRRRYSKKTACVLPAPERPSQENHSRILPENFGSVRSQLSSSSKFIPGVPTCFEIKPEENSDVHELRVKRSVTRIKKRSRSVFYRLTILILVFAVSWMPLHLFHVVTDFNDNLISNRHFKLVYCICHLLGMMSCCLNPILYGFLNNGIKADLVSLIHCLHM
Test: 125I-PYY displacement, COS-7 membranes
property_name: pKi
Reminder that pKi means the negative base-10 logarithm of the concentration expressed in mol/L.

TPEQMAQYAADLRRYINMLTRPRY [human PP13-36] | 6.14
PLEPVYPGDNATPEQMAQYAADLRRYINMLTRPRY [human PP2-36] | 8.68

Now for a further binder.
Record APLEPMYPGDYATHEQRAQYETQLRRYINTLTRPRY [rat PP] . Reported pKi: 6.20
